Measured pIC50 accompanies every entry in the list below.
- System: COR-L23 parental (COR-L23/P) human non-small cell lung carcinoma cell line
- Test Description: Cytotoxicity in COR-L23 parental cells (SRB assay)
- Type: cell-based
- Conditions Used: 5-6 days incubation
pIC50: −log10 of the molar value.

| Molecule | Target | pIC50 |
| --- | --- | --- |
| COc1nccc2c1ccc1nc3cccc(C(=O)NCCN(C)C)c3nc12 | COR-L23 parental (COR-L23/P) human non-small cell lung carcinoma cell line | 7.85 |
| COc1nccc2c1ccc1nc3cccc(C(=O)N[C@H](CO)CN(C)C)c3nc12 | COR-L23 parental (COR-L23/P) human non-small cell lung carcinoma cell line | 8.40 |
| COc1nccc2c1ccc1nc3cccc(C(=O)N[C@H](C)CN(C)C)c3nc12 | COR-L23 parental (COR-L23/P) human non-small cell lung carcinoma cell line | 7.92 |
| CN(C)CCNC(=O)c1cccc2nc3ccc4ncccc4c3nc12 | COR-L23 parental (COR-L23/P) human non-small cell lung carcinoma cell line | 7.32 |
| CN(C)CCNc1nc2cc(O)ccc2c2c1C(=O)c1ccccc1-2 [TAS-103, reference compound] | COR-L23 parental (COR-L23/P) human non-small cell lung carcinoma cell line | 7.79 |
| CN(C)CCNC(=O)c1cccc2nc3ccc4cnccc4c3nc12 | COR-L23 parental (COR-L23/P) human non-small cell lung carcinoma cell line | 7.66 |

---

Measured Rf(JLA/JLC) accompanies every entry in the list below.
- Tested on: amsacrine-resistant Jurkat human leukaemia cell line (JLA)
- Test Description: Cytotoxicity in amsacrine-resistant Jurkat cells (JLA)
- Assay type: cell-based
- Conditions Used: IC50 in JLA divided by IC50 in JLC

| Compound | Rf(JLA/JLC) |
| --- | --- |
| COc1nccc2c1ccc1nc3cccc(C(=O)NCCN(C)C)c3nc12 | 0.7 |
| CN(C)CCNC(=O)c1cccc2nc3ccc4cnccc4c3nc12 | 3 |
| COc1nccc2c1ccc1nc3cccc(C(=O)N[C@H](C)CN(C)C)c3nc12 | 0.7 |
| CN(C)CCNC(=O)c1cccc2nc3ccc4ncccc4c3nc12 | 2.8 |
| CN(C)CCNc1nc2cc(O)ccc2c2c1C(=O)c1ccccc1-2 [TAS-103, reference compound] | 55.9 |
| CN(C)CCNC(=O)c1cccc2nc3ccc4cnn(C)c4c3nc12 | 1 |
| COc1cccc2c1C(=O)c1c(O)c3c(c(O)c1C2=O)C[C@@](O)(C(=O)CO)C[C@@H]3O[C@H]1C[C@H](N)[C@H](O)[C@H](C)O1 [Doxorubicin, reference compound] | 3.7 |

---

- System: H69/LX4 human small cell lung carcinoma cell line which overexpresses P-glycoprotein (Pgp)
- Test Description: Cytotoxicity in drug resistant H69/LX4 cells (AlamarBlue)
- Conditions Used: Homo sapiens, read-out: H69/LX4 IC50
Measured IC50 accompanies every entry in the list below.

| Compound | IC50 / nM |
| --- | --- |
| COc1cccc2c1C(=O)c1c(O)c3c(c(O)c1C2=O)C[C@@](O)(C(=O)CO)C[C@@H]3O[C@H]1C[C@H](N)[C@H](O)[C@H](C)O1 [Doxorubicin, reference compound] | 3700 |
| CC[C@@]1(O)C(=O)OCc2c1cc1n(c2=O)Cc2cc3c(CN(C)C)c(O)ccc3nc2-1 [Topotecan, reference compound] | 61.5 |
